# test-protocol: DNDI: Cytotoxicity against L-6 rat myoblasts from skeletal muscle cells
# test-parameters: L6 rat skeletal muscle myoblast cells, IC50
pIC50: −log10 of the molar value.
endpoint-name: pIC50

Challenge: Read off the recorded pIC50 for O=C(NC(c1ccc(C(F)(F)F)cc1)c1cnccn1)C1CC1 (configuration not stated)
Response given: < 4.00

Challenge: Read off the recorded pIC50 for O=S(=O)(c1ccc(C(F)(F)F)cc1)N1CCC(NC(c2cnccn2)c2ccc(F)cc2F)CC1 (configuration not stated)
Response given: 4.20

Challenge: Read off the recorded pIC50 for O=S(=O)(Cc1ccccc1)NC1CCN(C(c2ccc(C(F)(F)F)cc2)c2cnccn2)CC1 (configuration not stated)
Response given: 4.26

Challenge: Read off the recorded pIC50 for O=C(c1cscn1)N1CCC(NC(c2cccnc2)c2ccc(Cl)cc2F)CC1 (configuration not stated)
Response given: < 4.00

Challenge: Read off the recorded pIC50 for `Cn1cccc1C(O)(c1ccc(Cl)cc1)c1ccc(Cl)cc1`
Response given: 4.25

Challenge: Read off the recorded pIC50 for Cc1nc(N2CCC(NC(c3cccnc3)c3ccc(Cl)cc3F)CC2)no1 (configuration not stated)
Response given: < 4.00

Challenge: Read off the recorded pIC50 for CS(=O)(=O)N1CCC(CNC(c2ccc(C(F)(F)F)cc2)c2cnccn2)CC1 (configuration not stated)
Response given: < 4.00

Challenge: Read off the recorded pIC50 for `O=C(c1ccccc1)N1CCC(CN(c2ccc(C(F)(F)F)cc2)c2cccnc2)CC1`
Response given: 4.29

Challenge: Read off the recorded pIC50 for CS(=O)(=O)NC1CCN(C(c2ccc(Cl)cc2)c2cncnc2)CC1 (configuration not stated)
Response given: < 4.00

Challenge: Read off the recorded pIC50 for O=S(=O)(c1ccc(C(F)(F)F)cc1)N1CCN(C(c2cncnc2)c2ccc(Cl)cc2F)CC1 (configuration not stated)
Response given: 4.13

Challenge: Read off the recorded pIC50 for CCn1cc(C(NC2CCN(c3ccc(OC(F)(F)F)cc3)CC2)c2cccnc2)cn1 (configuration not stated)
Response given: 4.13

Challenge: Read off the recorded pIC50 for `OC(c1cncnc1)(c1ccccc1Cl)c1ccccc1Cl`
Response given: < 4.00

Challenge: Read off the recorded pIC50 for Clc1ccc(C(c2cncnc2)N2CCNCC2)cc1 (configuration not stated)
Response given: < 4.00

Challenge: Read off the recorded pIC50 for CC(C)Oc1ccc(C(NC2CCN(C(=O)OC(C)(C)C)CC2)c2cccnc2)cc1 (configuration not stated)
Response given: 4.23

Challenge: Read off the recorded pIC50 for O=S(=O)(C1CCCCC1)N1CCC(NC(c2ccc(C(F)(F)F)cc2)c2cnccn2)CC1 (configuration not stated)
Response given: 4.20

Challenge: Read off the recorded pIC50 for CCS(=O)(=O)N1CCN(C(c2ccc(Cl)cc2)c2cccnc2)CC1 (configuration not stated)
Response given: < 4.00

Challenge: Read off the recorded pIC50 for CC(C)(C)OC(=O)NC1CCN(C(c2ccc(Cl)cc2)c2cncnc2)CC1 (configuration not stated)
Response given: < 4.00

Challenge: Read off the recorded pIC50 for `OC(c1ccc(C(F)(F)F)cc1)(c1ccc(C(F)(F)F)cc1)c1cc2ccccc2[nH]1`
Response given: 4.94

Challenge: Read off the recorded pIC50 for OC(c1ccc(C(F)(F)F)cc1)(c1cncc(Cl)c1)c1ccc(Cl)cc1F (configuration not stated)
Response given: 4.10

Challenge: Read off the recorded pIC50 for OC(c1ccc(Cl)cc1)(c1cncnc1)c1ccccc1F (configuration not stated)
Response given: < 4.00

Challenge: Read off the recorded pIC50 for COc1ccccc1N1CCN(C(c2cccnc2)c2ccc(Cl)cc2F)CC1 (configuration not stated)
Response given: 4.22

Challenge: Read off the recorded pIC50 for CN(C)C(=O)C1CCN(C(c2ccc(C(F)(F)F)cc2)c2cnccn2)CC1 (configuration not stated)
Response given: < 4.00

Challenge: Read off the recorded pIC50 for CC(C)(C)NC(=O)N1CCC(NC(c2ccc(C(F)(F)F)cc2)c2cccnc2)CC1 (configuration not stated)
Response given: < 4.00

Challenge: Read off the recorded pIC50 for O=C(Nc1ccccc1)NC1CCN(C(c2ccc(Cl)cc2)c2cccnc2)CC1 (configuration not stated)
Response given: 4.12

Challenge: Read off the recorded pIC50 for O=S(=O)(NC(c1ccc(C(F)(F)F)cc1)c1cnccn1)C1CCCCC1 (configuration not stated)
Response given: 4.07

Challenge: Read off the recorded pIC50 for CS(=O)(=O)N1CCC(C(O)(c2ccc(Cl)cc2)c2cccnc2)CC1 (configuration not stated)
Response given: < 4.00

Challenge: Read off the recorded pIC50 for O=S(=O)(NC(c1ccc(C(F)(F)F)cc1)c1cnccn1)c1ccccc1 (configuration not stated)
Response given: < 4.00

Challenge: Read off the recorded pIC50 for O=S(=O)(Cc1ccccc1)N1CCC(NC(c2ccc(C(F)(F)F)cc2)c2cnccn2)CC1 (configuration not stated)
Response given: < 4.00

Challenge: Read off the recorded pIC50 for O=C(C1CC1)N1CCC(NC(c2ccc(C(F)(F)F)cc2)c2cccnc2)CC1 (configuration not stated)
Response given: < 4.00

Challenge: Read off the recorded pIC50 for N#Cc1ccccc1C(O)(c1ccc(Cl)cc1)c1cccnc1 (configuration not stated)
Response given: < 4.00

Challenge: Read off the recorded pIC50 for O=C(c1cc[nH]n1)N1CCC(NC(c2ccc(C(F)(F)F)cc2)c2cccnc2)CC1 (configuration not stated)
Response given: < 4.00

Challenge: Read off the recorded pIC50 for `CON=C(Cc1ccccc1C(=O)O)c1ccc(Cl)cc1`
Response given: < 4.00

Challenge: Read off the recorded pIC50 for `FC(F)(F)c1ccc(N(CC2CCN(c3ccc(Cl)cc3)CC2)c2cccnc2)cc1`
Response given: 4.12

Challenge: Read off the recorded pIC50 for `CON=C(Cc1ccc(OC)cc1)c1ccc(OC)c(OC)c1OC`
Response given: 4.03

Challenge: Read off the recorded pIC50 for CN(C)C(=O)NC1CCN(C(c2cnccn2)c2ccc(F)cc2F)CC1 (configuration not stated)
Response given: < 4.00

Challenge: Read off the recorded pIC50 for CC(C)C(=O)N1CCN(C(c2ccc(Cl)cc2)c2cncnc2)CC1 (configuration not stated)
Response given: < 4.00

Challenge: Read off the recorded pIC50 for CC(C)S(=O)(=O)NC1CCN(C(c2ccc(C(F)(F)F)cc2)c2cnccn2)CC1 (configuration not stated)
Response given: < 4.00

Challenge: Read off the recorded pIC50 for Cc1cc(C(=O)NC2CCN(C(c3ccc(C#N)cc3)c3cccnc3)CC2)nn1C (configuration not stated)
Response given: < 4.00

Challenge: Read off the recorded pIC50 for O=C(NC(c1ccc(C(F)(F)F)cc1)c1cnccn1)C1CCCCC1 (configuration not stated)
Response given: < 4.00

Challenge: Read off the recorded pIC50 for CC(C)(C)NC(=O)NC1CCN(C(c2ccc(Cl)cc2)c2cccnc2)CC1 (configuration not stated)
Response given: < 4.00

Challenge: Read off the recorded pIC50 for O=C(NC1CCN(C(c2cncnc2)c2ccc(Cl)cc2F)CC1)c1c(F)cccc1F (configuration not stated)
Response given: 4.08

Challenge: Read off the recorded pIC50 for OC(c1ccc(Cl)cc1)(c1cccnc1)c1cnc(OC(CF)CF)nc1 (configuration not stated)
Response given: < 4.00

---

# test-protocol: DNDI: Cytotoxicity against L-6 rat myoblasts from skeletal muscle cells
# test-parameters: L6 rat skeletal muscle myoblast cells, IC50
endpoint-name: pIC50
// returns pIC50 (minus log10 of molar concentration), number only

Challenge: Read off the recorded pIC50 for O=C(c1ccccc1)N1CCN(C(c2ccc(Cl)cc2)c2cncnc2)CC1 (configuration not stated)
Response given: 4.12

Challenge: Read off the recorded pIC50 for Fc1cc(Cl)ccc1C(NC1CCN(c2ccc(F)c(C(F)(F)F)c2)CC1)c1cccnc1 (configuration not stated)
Response given: 4.23

Challenge: Read off the recorded pIC50 for O=C(NC1CC1)c1cccc(C(O)(c2ccc(Cl)cc2)c2cccnc2)c1 (configuration not stated)
Response given: 4.14

Challenge: Read off the recorded pIC50 for O=C1OC(c2ccc(Cl)cc2)(c2cccnc2)c2ccccc21 (configuration not stated)
Response given: 4.07

Challenge: Read off the recorded pIC50 for COc1cncc(N2CCC(NC(c3ccc(Cl)cc3)c3cccnc3)CC2)c1 (configuration not stated)
Response given: 4.23

Challenge: Read off the recorded pIC50 for CSc1ccc(N2CCC(NC(c3ccc(Cl)cc3)c3cccnc3)CC2)cc1 (configuration not stated)
Response given: 4.52

Challenge: Read off the recorded pIC50 for O=S(=O)(c1ccc(C(F)(F)F)cc1)N1CCC(NC(c2cccnc2)c2ccc(Cl)cc2F)CC1 (configuration not stated)
Response given: 4.75

Challenge: Read off the recorded pIC50 for OC(c1ccc(C(F)(F)F)cc1)(c1cncc(F)c1)c1ccc(Cl)cc1F (configuration not stated)
Response given: 4.29

Challenge: Read off the recorded pIC50 for CC(C)(C)OC(=O)NC1CCN(C(c2ccc(C(F)(F)F)cc2)c2cnccn2)CC1 (configuration not stated)
Response given: 4.25

Challenge: Read off the recorded pIC50 for CC(C)Oc1ccc(C(NC(=O)c2ccc(Cl)cc2)c2cccnc2)cc1 (configuration not stated)
Response given: 4.07

Challenge: Read off the recorded pIC50 for OC(CC1CCCCC1)(c1ccc(Cl)cc1)c1cncnc1 (configuration not stated)
Response given: 4.19

Challenge: Read off the recorded pIC50 for FC(F)(F)Cn1cc(C(NC2CCN(c3ccc(OC(F)(F)F)cc3)CC2)c2cccnc2)cn1 (configuration not stated)
Response given: 4.18

The reported numbers originate from ChEMBL document CHEMBL1862790.
